molecular target: T1, human GPC3-his tag protein (human, UniProt P51654 25-559, limits assumed); assay: SPR Biacore 8K, mAb captured, affinity ranking
T1 construct: recombinant soluble antigen used as analyte in all Biacore runs; also called recombinant GPC3 protein; rhGPC3-His; not shown: His tag
Catalogue of binders with associated kon
Form entry: enter the amount, then its unit.

Some solved cases for reference:
kon for Hu 52H5D3B8-1 (antibody, V domains shown, humanized 52H5D3B8; also called 52H5D3B8 VH0 + VL0) VH: EVQLVQSGAEVKKPGASVKVSCKASGYTFTDYEMHWVRQAPGQGLEWMGAIHPGSGGTAYNQKFKGRVTMTRDTSISTAYMELSRLRSDDTAVYYCARFYSYAYWGQGTLVTVSS VL: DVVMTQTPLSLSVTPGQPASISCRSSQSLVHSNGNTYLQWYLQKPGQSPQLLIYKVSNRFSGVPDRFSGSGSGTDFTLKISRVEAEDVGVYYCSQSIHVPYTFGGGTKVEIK is 255000 M⁻¹ s⁻¹

kon for Hu 52H5D3B8-8 (antibody, V domains shown, humanized 52H5D3B8; also called 52H5D3B8 VH3 + VL1) VH: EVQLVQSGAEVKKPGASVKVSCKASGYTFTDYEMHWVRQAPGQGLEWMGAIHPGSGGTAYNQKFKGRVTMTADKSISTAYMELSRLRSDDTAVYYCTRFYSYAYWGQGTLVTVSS VL: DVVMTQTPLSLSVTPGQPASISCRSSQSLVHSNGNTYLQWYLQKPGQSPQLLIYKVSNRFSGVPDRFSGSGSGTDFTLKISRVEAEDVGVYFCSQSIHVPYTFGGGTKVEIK is 332000 M⁻¹ s⁻¹

kon for Hu 52H5D3B8-6 (antibody, V domains shown, humanized 52H5D3B8; also called 52H5D3B8 VH2 + VL1) VH: EVQLVQSGAEVKKPGASVKVSCKASGYTFTDYEMHWVRQAPGQGLEWMGAIHPGSGGTAYNQKFKGRVTMTADTSISTAYMELSRLRSDDTAVYYCTRFYSYAYWGQGTLVTVSS VL: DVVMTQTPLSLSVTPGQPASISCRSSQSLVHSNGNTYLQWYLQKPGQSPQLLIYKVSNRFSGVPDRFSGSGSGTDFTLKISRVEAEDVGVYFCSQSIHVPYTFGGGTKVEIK is 327000 M⁻¹ s⁻¹

kon for 52H5D3B8 chimeric mAb (antibody, V domains shown, also called 52H5D3B8-VH+VL; chimeric 52H5D3B8 mAb) VH: QVQLQQSGAELVRPGASVKLSCKALGYTFTDYEMHWVKQTPVHGLEWIGAIHPGSGGTAYNQKFKGKATLTADKFSSTGYMELSSLTSEDSAVYYCTRFYSYAYWGQGTLVTVSA VL: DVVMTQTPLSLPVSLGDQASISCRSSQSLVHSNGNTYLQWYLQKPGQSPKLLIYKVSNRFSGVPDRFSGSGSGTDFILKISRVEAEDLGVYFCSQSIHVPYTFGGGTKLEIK is 347000 M⁻¹ s⁻¹

// below: kon requested for another binder
kon for Hu 52H5D3B8-2 (antibody, V domains shown, humanized 52H5D3B8; also called 52H5D3B8 VH0 + VL1) VH: EVQLVQSGAEVKKPGASVKVSCKASGYTFTDYEMHWVRQAPGQGLEWMGAIHPGSGGTAYNQKFKGRVTMTRDTSISTAYMELSRLRSDDTAVYYCARFYSYAYWGQGTLVTVSS VL: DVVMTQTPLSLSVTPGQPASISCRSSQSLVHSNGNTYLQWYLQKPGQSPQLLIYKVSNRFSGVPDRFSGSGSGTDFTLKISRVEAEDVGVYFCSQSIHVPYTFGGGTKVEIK is 285000 M⁻¹ s⁻¹
